The reported measurements were obtained from PubChem BioAssay (EPA / NIEHS).

Assay: ATG_E_Box_CIS: Attagene CIS-FACTORIAL HepG2 Assay for human Enhancer Box (E-box) (AID 2282936)
Conditions: HepG2 E-box cis-reporter transcription, actives raise or lower the signal
The source made the active and inactive calls. The calls were made as follows: active = hit-call score of the fitted dose curve at least 0.9, where 1 is the maximum; inactive = score below 0.9.
RESULT_TYPE: AC50

>>> print(df.to_string())
                              smiles_string  result_type      result_value
0                             c1ccc2occc2c1         AC50          inactive
1               CC1=C(C)S(=O)(=O)CCS1(=O)=O         AC50   100 µM (active)
2  COc1ccc(C(=O)Nc2nc3ccccc3c(NCc3ccccc3)c2C#N)cc1         AC50          inactive
3  Nc1nc(Cl)nc2c1ncn2[C@H]1C[C@H](O)[C@@H](CO)O1         AC50  11.4 µM (active)
4                                      O=NO         AC50          inactive
5                CC(=O)OCC(COC(C)=O)OC(C)=O         AC50          inactive
6                      CN(C)CCCN(C)CCCN(C)C         AC50          inactive

---

Biological target: AR (gene 367)
Assay: ACEA_AR_antagonist_80hr: ACEA Biosciences xCELLigence Real-Time Cell Analysis on Androgen Receptor Antagonism for Proliferation (AID 2283787);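 also: 22Rv1 human prostate cancer cells with growth followed by electrical impedance; hits lower the impedance growth signal relative to DMSO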
Inconclusive results are not listed. The source made the active and inactive calls. Rule for the calls: active = hit-call score of the fitted dose curve at least 0.9, where 1 is the maximum; inconclusive = response in the unintended direction; inactive = score below 0.9.
RESULT_TYPE: AC50

>>> print(df.to_string())
                                   compound       result_value
0  CC(C)OC(=O)C(C)(C)Oc1ccc(C(=O)c2ccc(Cl)cc2)cc1   53.4 µM (active)
1                  CCCCCCCCCC[N+](C)(C)[O-]           inactive
2                                NCCOCCOCCN           inactive
3                                O=C1CCCCC1           inactive
4  CCC(C)N(C)C(=O)c1cc2ccccc2c(-c2ccccc2Cl)n1 (configuration not stated)   46.4 µM (active)
5                  Nc1nc(=S)c2[nH]cnc2[nH]1  0.198 µM (active)
6               CC1=C(C)S(=O)(=O)CCS1(=O)=O   79.6 µM (active)

---

Experiment: Tanguay_ZF_120hpf_PE_legacy: (Legacy) Oregon State University Tanguay Lab 120 Hour Post-fertilization zebrafish Assay for Pericardial Edema (AID 2283640)
Experimental: Tanguay_ZF_120hpf_legacy is a whole embryo, multiplexed endpoint assay using zebrafish larvae exposed for 120 hours post fertilization on a 96-well plate.Tanguay_ZF_120hpf_PE_legacy is one of one assay component(s) measured or calculated from the Tanguay_ZF_120hpf_legacy assay. […] This assay endpoint, Tanguay_ZF_120hpf_PE_legacy, was analyzed in the positive analysis fitting direction relative to DMSO as the negative control and baseline of activity. […]
Results filed as inconclusive are left out. Active and inactive are the calls of the source. How the source made its calls: active means hit-call score of the fitted dose curve at least 0.9, where 1 is the maximum; inconclusive means response in the unintended direction; inactive means score below 0.9.
Classes used: YES = active, NO = inactive

>>> print(df.to_string())
                                    compound  class_label
 0                                 NC1CCCCC1           NO
 1                      C=CCc1ccc(OC)c(OC)c1           NO
 2                      CC(C)c1cccc(C(C)C)c1           NO
 3  CCCCc1nc2cccnc2n1Cc1ccc(-c2ccccc2-c2nnn[nH]2)cc1           NO
 4  CN(C)C(=O)NC1(c2ccccc2)CCN(CCC[C@]2(c3ccc(Cl)c(Cl)c3)CCCN(C(=O)c3ccccc3)C2)CC1           NO
 5  Cc1ccc(-c2cc(C(F)(F)F)nn2-c2ccc(S(N)(=O)=O)cc2)cc1           NO
 6                 CCCCCCCCCCCCCCOS(=O)(=O)O          YES
 7    O=C(Oc1ccccc1)c1cccc(C(=O)Oc2ccccc2)c1           NO
 8                          CC(C)(C)c1ccccc1           NO
 9  CC(C)c1cccc(C(C)C)c1NC(=O)NS(=O)(=O)c1cc(C(C)(C)O)co1           NO
10            CCCCC(CC)CO (stereo not drawn)           NO
11                        S=c1[nH]c2ccccc2s1          YES
12  Cc1cc(SC2=C(O)C[C@@](CCc3ccc(N)cc3)(C(C)C)OC2=O)c(C(C)(C)C)cc1CO           NO
13  O=C1OC(c2ccc(O)cc2)(c2ccc(O)cc2)c2ccccc21           NO
14  COC(=O)[C@H]1[C@H]2C[C@@H]3c4[nH]c5cc(OC)ccc5c4CCN3C[C@H]2C[C@@H](OC(=O)c2cc(OC)c(OC)c(OC)c2)[C@@H]1OC           NO
15  CC(C)NCC(O)c1ccc(O)c(O)c1 (stereo not drawn)           NO
16             CCc1nc(N)nc(N)c1-c1ccc(Cl)cc1           NO
17                            O=Cc1ccccc1C=O           NO
